Data origin, for the record: patent US20230357233A1

biological target: recombinant human KRAS^G12D protein (Homo sapiens, UniProt P01116, G12D); experiment: Temperature-dependent Fluorescence (TdF) KRAS^G12D protein binding assay; conditions: 6 μM KRAS^G12D Protein, 10 μM compound, Sypro Orange; Kd calculated from fluorescent shift
Sequence (P01116 1-188 isoform P01116-2 G12D): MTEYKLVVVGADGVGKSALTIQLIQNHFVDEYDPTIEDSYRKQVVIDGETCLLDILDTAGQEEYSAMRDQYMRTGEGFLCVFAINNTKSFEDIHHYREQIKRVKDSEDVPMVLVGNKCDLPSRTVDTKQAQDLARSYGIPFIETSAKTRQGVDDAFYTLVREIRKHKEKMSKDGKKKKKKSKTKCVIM
ASSAY READOUT: Kd

O=c1cc2c(N3CC4CCC(C3)N4)nc(OCC34CCCN3CCC4)nc2cn1-c1cccc2ccccc12 [Compound 110] ... > 5 µM
Oc1cc(-c2nc(OCC34CCCN3CCC4)c3ccc(N4CCNCC4)nc3c2F)c2c(Cl)cccc2c1 [Compound 57] ... > 5 µM
CN(C)CCOc1nc(N2C3CCC2CNC3)c2cc(F)c(-c3ccccc3F)nc2c1-c1cccnc1C1CC1 [Compound 20] ... > 5 µM
Nc1cccc(F)c1-c1nc2nc(OCC34CCCN3CCC4)nc(N3CC4CCC(C3)N4)c2cc1Cl [Compound 11] ... > 5 µM
Clc1cccc2cccc(-c3ncc4c(N5CC6CCC(C5)N6)nc(OCC56CCCN5CCC6)cc4n3)c12 [Compound 46] ... > 5 µM

Field: next compound
Prompt: I'd like to know its Kd. The compound in question is Nc1nc2c(-c3ncc4c(N5CC6CCC(C5)N6)nc(OC[C@@]56CCCN5C[C@H](F)C6)nc4c3F)ccc(F)c2s1 [Compound 68]
Response: ≤ 0.5 µM

----------
target: recombinant human KRAS^G12D protein (Homo sapiens, UniProt P01116, G12D); assay: Temperature-dependent Fluorescence (TdF) KRAS^G12D protein binding assay; settings: 6 μM KRAS^G12D Protein, 10 μM compound, Sypro Orange; Kd calculated from fluorescent shift
ASSAY READOUT: Kd

Take a look at these entries with their results.
Oc1cc(-c2ncc3c(C4CCNCC4)nc(OCC45CCCN4CCC5)nc3c2F)c2c(Cl)cccc2c1 [Compound 55] ... > 5000 nM
Cc1cccc2cc(O)cc(-c3nc(C)c4c(N5CC6CCC(C5)N6)nc(OC[C@@]56CCCN5C[C@H](F)C6)nc4c3F)c12 [Compound 93] ... ≤ 500 nM

Prompt: I'd like to know its Kd. The compound in question is CCc1cccc2cc(O)cc(-c3nc(C)c4c(N5CC6CCC(C5)N6)nc(OC[C@@]56CCCN5C[C@H](F)C6)nc4c3C)c12 [Compound 117]
Response: ≤ 500 nM

Prompt: How about COc1c(F)ccc2cc(O)cc(-c3nc(OC)c4c(N5CC6CCC(C5)N6)nc(OC[C@@]56CCCN5C[C@H](F)C6)nc4c3F)c12 [Compound 147] ?
Response: ≤ 500 nM

Prompt: How about Oc1cc(-c2nc3cc(OC[C@@]45CCCN4C[C@H](F)C5)nc(N4CC5CCC(C4)N5)c3cc2Cl)c2c(Cl)cccc2c1 [Compound 43] ?
Response: > 5000 nM

Prompt: How about CCc1cccc2cc(O)cc(-c3cc4c(cn3)c(N3CC5CCC(C3)N5)nc(=O)n4C[C@@H]3CCCN3C)c12 [Compound 88] ?
Response: > 5000 nM

Prompt: How about Cc1nc(-c2ccc(F)c3sc(N)nc23)c(F)c2nc(OC[C@@]34CCCN3C[C@H](F)C4)nc(N3CC4CCC(C3)N4)c12 [Compound 87] ?
Response: 500 to 5000 nM

Prompt: How about C#Cc1c(F)ccc2cc(N)cc(-c3nc(OC)c4c(N5CC6CCC(C5)N6)nc(OC[C@@]56CCCN5C[C@H](F)C6)nc4c3F)c12 [Compound 163] ?
Response: ≤ 500 nM

Prompt: How about Oc1cc(-c2ncc3c(N4C5CCC4CNC5)nc(OC[C@@]45CCCN4C[C@H](F)C5)nc3c2F)c2c(Cl)cccc2c1 [Compound 70] ?
Response: ≤ 500 nM

Prompt: How about Oc1cc(-c2ncc3c(N4CC5CCC(C4)N5)nc(OC[C@@]45CCCN4C[C@H](F)C5)nc3c2F)c2c(Cl)cccc2c1 [Compound 112] ?
Response: ≤ 500 nM

Prompt: How about Oc1cc(-c2nc3nc(OCC45CCCN4CCC5)nc(N4CC5CCC(C4)N5)c3cc2Cl)c2ccccc2c1 [Compound 10] ?
Response: > 5000 nM

Prompt: How about Nc1cccc(F)c1-c1ncc2c(N3CCNCC3)nc(OCC34CCCN3CCC4)cc2n1 [Compound 22] ?
Response: > 5000 nM

Prompt: How about Cc1nc(-c2cccc3cccc(CCC#N)c23)c(F)c2nc(OC[C@@]34CCCN3C[C@H](F)C4)nc(N3CC4CCC(C3)N4)c12 [Compound 123] ?
Response: > 5000 nM
